Biological target: (NANP)6 (Plasmodium falciparum)
Assay: BLI, target on sensor
Reported metric: pKd
Expect pKd as a plain number equal to -log10 of the molar concentration.

Entry AB-007029 (antibody, V domains shown) VH: QVQLVESGGGVVQPGRSLRLSCTASGFTFSTYAMHWVRQSPGQGLQWVAVISYHSTNKYYEDSVRGRFTISRDNSKNTLYLQMNSLRAEDTAVYYCARDGYSSSFFDFWGQGTLVTVSS VL: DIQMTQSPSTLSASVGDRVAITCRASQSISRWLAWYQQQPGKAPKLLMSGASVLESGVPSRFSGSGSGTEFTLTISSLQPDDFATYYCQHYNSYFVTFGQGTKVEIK ; pKd = 9.10

# pKd (binder: AB-007034 (antibody, V domains shown) VH: QVQLVESGGGVVQPGRSLRLSCAASGFTFSTYAMHWVRQAPGQGLEWVAVISYHSTNKYYADSVRGRFTISRDNSKNTLYLQMNSLRAEDTAVYYCARDGYSSSFFDFWGQGTLVTVSS VL: DIQMTQSPSTLSASVGDRVTITCRASQSISRWLAWYQQQPGKAPKLLISGASVLESGVPSRFSGSGSGTEFTLTISSLQPDDFATYYCQHYNSYFVTFGQGTKVEIK ) is 10.05

Entry AB-007065 (antibody, V domains shown) VH: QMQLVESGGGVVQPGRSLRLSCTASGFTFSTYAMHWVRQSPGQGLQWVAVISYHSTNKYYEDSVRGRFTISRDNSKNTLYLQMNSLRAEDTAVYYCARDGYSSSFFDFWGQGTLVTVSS VL: DIQMTQSPSTLSASVGDRVAITCRASQSISRWLAWYQQQPGKAPKLLMSKASVLESGVPSRFSGSGSGTEFTLTISSLQPDDFATYYCQHYNSYFVTFGQGTKVEIK — recorded pKd = 9.14
